- MEASUREMENT_PROTOCOL: Oxidative metabolic stability in human liver microsomes at 1 uM after 30 mins in presence of 1 mM NADPH
- Type: ADME, Microsome
- APPLIED_CONDITIONS: liver microsomes, read-out: Stability
MEASUREMENT_KIND: remaining at 0.5 h, 1 µM (%)
All answers are understood in %, so give the number only.

- COMPOUND: "C[C@@H]1c2c[nH]nc2-c2cc(F)ccc2N1S(=O)(=O)c1ccc(Cl)cc1"
  remaining at 0.5 h, 1 µM, %: 1

Request: Consider the compound CC1c2c[nH]nc2-n2ccnc2N1S(=O)(=O)c1ccc(Cl)cc1 (racemic) and give its measured remaining at 0.5 h, 1 µM.
Response: 74

Request: Recorded remaining at 0.5 h, 1 µM for COc1ccc(S(=O)(=O)N2c3ccccc3-c3n[nH]cc3C2C2CC2)cc1 (racemic) , please?
Response: 3

Request: Form field: reported remaining at 0.5 h, 1 µM of O=S(=O)(c1ccc(C(F)(F)F)cc1)N1c2cc(-c3cncnc3)ccc2-c2n[nH]cc2C1C1CC1 (racemic)
Response: 27

Request: Which remaining at 0.5 h, 1 µM is listed for CC1c2c[nH]nc2-c2cc(Cl)sc2N1S(=O)(=O)c1ccc(C(F)(F)F)cc1 (racemic) ?
Response: 3

Request: Which remaining at 0.5 h, 1 µM value is on record for O=S(=O)(c1ccc(C(F)(F)F)cc1)N1c2cc(Cl)ccc2-c2n[nH]cc2C1C1CC1 (racemic) ?
Response: 87

Request: Field request: remaining at 0.5 h, 1 µM | item: O=S(=O)(c1ccc(C(F)(F)F)cn1)N1c2ccc(F)cc2-c2n[nH]cc2[C@H]1C1CC1
Response: 95

Request: Fill blank: measured remaining at 0.5 h, 1 µM of the compound CC1c2c[nH]nc2-c2ccc(OC(=O)N(C)C)cc2N1S(=O)(=O)c1ccc(Cl)cc1 (racemic) is ____.
Response: 0
